For each entry below, report its Kd value.
Target: T1, PUF4 RNA-binding domain (Saccharomyces cerevisiae, UniProt P25339 537-888)
T1 sequence: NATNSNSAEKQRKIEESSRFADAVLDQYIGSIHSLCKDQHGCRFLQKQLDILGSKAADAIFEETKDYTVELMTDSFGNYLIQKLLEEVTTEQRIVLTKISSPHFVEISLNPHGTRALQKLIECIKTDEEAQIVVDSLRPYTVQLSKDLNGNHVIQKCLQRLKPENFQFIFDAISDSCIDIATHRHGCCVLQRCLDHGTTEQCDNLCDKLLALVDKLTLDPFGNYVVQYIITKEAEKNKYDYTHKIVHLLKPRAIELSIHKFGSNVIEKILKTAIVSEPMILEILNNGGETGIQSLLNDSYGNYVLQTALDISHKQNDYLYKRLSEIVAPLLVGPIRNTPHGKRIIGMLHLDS
Assay: Mg; RNA-MaP; 20 mM Na-HEPES pH 7.4, 30 mM KOAc, 0.75 mM MgCl2, 0.1% Tween-20, 5% glycerol, 0.1 mg/mL BSA, 2 mM DTT; 25 C; 0.0125-409.6 nM protein
Conditions: tags: N-His6-TEV cleaved; C-SNAP kept, Cy3B-labelled; label: tethered on chip by stalled RNA polymerase
Answers are plain numbers, in nM.

Prompt: # query: Kd of entry ACAAACUGUACCUCUUUAUUAACAAAC (ssRNA) [Ie_S3_P5E.1_K5.1_C5.1_H5.1_[+4CCTCT]_A5.1_F5.1_T5.1]
Response: 52.5

Prompt: # query: Kd of entry UCUCUUUGUGUAUUGUCUCUU (ssRNA) [Ib_S1_P4E.1_K4.1_C4.1_H4.1_[A4G]_A4.1_F4.1_[A9G]_T4.1]
Response: 18.3

Prompt: # query: Kd of entry Id_ii_S2_P4E.3_K4.2_C4.2_[C-2A]_[T-1C]_H4.2_A4.1_F4.1_T4.2_[G10T]_[T11G] (ssRNA) RNA: UUUGAUUAAUAUGAUAUCGUUCUUUCUACUAUAUAUUAUGUUCUUUCUCGAUAUCAUAUUAAUCUUU
Response: 135

Prompt: # query: Kd of entry Id_ii_S2_P3E.4_K3.3_C3.2_[C-2T]_[T-1A]_H3.3_A3.1_F3.1_T3.2_[T9C]_[A10T] (ssRNA) RNA: UUUGAUUAAUAUGAUAUCGUUCUUUCUUAACACUAUACUUUCUUUCUCGAUAUCAUAUUAAUCUUU
Response: 1860

Prompt: # query: Kd of entry UCUCUUUGUACACUAUAUAUCUCUU (ssRNA) [Id_iii_S1_P3E.7_K3.3_C3.3_[C-2G]_H3.3_A3.1_F3.1_T3.2]
Response: 1.32

Provide Kd values for the following items, in order.
1. Id_iii_S2_P4E.6_K4.2_C4.3_H4.2_A4.1_F4.1_T4.2_[G10T] (ssRNA) RNA: UUUGAUUAAUAUGAUAUCGUUCUUUCUUCUUAUAUAUUAUUUUCUUUCUCGAUAUCAUAUUAAUCUUU
2. Id_ii_S2_P3E.2_K3.1_C3.2_[C-2T]_[T-1C]_H3.1_A3.1_F3.1_T3.2_[A10T] (ssRNA) RNA: UUUGAUUAAUAUGAUAUCGUUCUUUCUUCUGUAUAUAUUUUCUUUCUCGAUAUCAUAUUAAUCUUU
3. Id_ii_S2_P5E.4_K5.3_C5.2_[C-2A]_H5.3_A5.1_F5.1_T5.2_[A12C] (ssRNA) RNA: UUUGAUUAAUAUGAUAUCGUUCUUUCUAUACACUUAUUAUCUUCUUUCUCGAUAUCAUAUUAAUCUUU
4. Id_i_S2_P3E.5_K3.1_C3.3_[T-3C]_[C-2T]_[T-1A]_H3.1_A3.1_F3.1_T3.2 (ssRNA) RNA: UUUGAUUAAUAUGAUAUCGUUCUUUCUCUAUGUAUAUAUAUUCUUUCUCGAUAUCAUAUUAAUCUUU
5. UCUCUUGUUGUAUAUUAAUUCUCUU (ssRNA) [Id_ii_S1_P4E.2_K4.1_C4.2_[C-2G]_H4.1_A4.1_F4.1_T4.2_[G10A]]
6. UCUCUUUGUAUUACCCUUUUAUCUCUU (ssRNA) [Ie_S1_P5E.1_K5.1_C5.1_H5.1_A5.1_[+7CCCTT]_F5.1_T5.1]
7. UCUCUUCCUGUAUAUAUUUCUCUU (ssRNA) [Id_ii_S1_P3E.2_K3.1_C3.2_[T-1C]_H3.1_A3.1_F3.1_T3.2_[A10T]]

Response:
1: 3.84; 2: 1.17; 3: 131; 4: 3.83; 5: 1.25; 6: 143; 7: 5.94

Provide Kd values for the following items, in order.
1. UCUCUUGCACACUAUACGUCUCUU (ssRNA) [Id_ii_S1_P3E.4_K3.3_C3.2_[C-2G]_[T-1C]_H3.3_A3.1_F3.1_T3.2_[T9C]_[A10G]]
2. Ic_S2_P5E.1_K5.1_C5.1_H5.1_A5.1_[T5G]_[A7T]_F5.1_[T8C]_[A10T]_T5.1 (ssRNA) RNA: UUUGAUUAAUAUGAUAUCGUUCUUUCUUGUAGUUCUUUUCUUUCUCGAUAUCAUAUUAAUCUUU
3. UCUCUUUGUAUAUUAUCUCUUCUCUU (ssRNA) [Ie_S1_P4E.1_K4.1_C4.1_H4.1_A4.1_F4.1_[+9TCTCT]_T4.1]
4. Id_ii_S2_P5E.3_K5.2_C5.2_[C-2A]_[T-1C]_H5.2_A5.1_F5.1_T5.2_[T11C] (ssRNA) RNA: UUUGAUUAAUAUGAUAUCGUUCUUUCUACUAUAUUAUUACAUUCUUUCUCGAUAUCAUAUUAAUCUUU
5. UCUCUUUGUACUGUGUCUCUU (ssRNA) [Ic_S1_P4E.1_K4.1_C4.1_H4.1_A4.1_[T5C]_[A6T]_[T7G]_F4.1_[A9G]_T4.1]
6. UCUCUUUCUGUAUAUUAUCUCUU (ssRNA) [Ie_S1_P4E.1_K4.1_C4.1_H4.1_[+1CT]_A4.1_F4.1_T4.1]
7. ACAAACUGUAUAUUUCUCAACAAAC (ssRNA) [Ie_S3_P4E.1_K4.1_C4.1_H4.1_A4.1_F4.1_[+8TCTC]_T4.1]
8. UCUCUUUGUUGUAUUUAAGUUCUCUU (ssRNA) [Id_iii_S1_P4E.9_K4.5_C4.3_[C-2G]_H4.1_A4.2_F4.2_T4.2]

Response:
671
126
0.824
162
50.5
0.72
8.77
155

Provide Kd values for the following items, in order.
1. ACAAACUGUAUCUCUCUAUUAACAAAC (ssRNA) [Ie_S3_P5E.1_K5.1_C5.1_H5.1_A5.1_[+5CTCTC]_F5.1_T5.1]
2. UCUCUUUGUACCAGUGUCUCUU (ssRNA) [Ic_S1_P5E.1_K5.1_C5.1_H5.1_A5.1_[T5C]_[T6C]_F5.1_[T8G]_[A10G]_T5.1]

Response:
1: 30.4; 2: 470

The reported numbers originate from paper PMC9352680.
